From: PubChem BioAssay (NCATS)

- Test system: MCC-26
- ASSAY NAME: qHTS assay to identify novel small-molecules to repurpose for Merkel cell carcinoma treatment (AID 1296009); further: nearly all actives have a fitted effect of over 60% in size
- CONDITION SET: MCC and control cell lines, CellTiter-Glo viability, 72 h; series mostly up to 46 µM
Records with an inconclusive call do not appear. Calls of active or inactive are those of the source. The call rests on the fitted dose curve; in most records, active means well fitted inhibition curve with a large enough effect; inconclusive means small, poorly fitted or top-dose-only effect; inactive means flat fitted curve, though single readings scatter.
MEASURE: outcome

- C=CCOc1cc(Cl)ccc1C(=O)NCCN(CC)CC: inactive
- Cc1ccc(-c2ccccc2C#N)cc1: inactive
- CCOC(=O)Oc1ccc(CCNC(=O)[C@H](CCSC)NC(C)=O)cc1OC(=O)OCC: inactive
- COC(=O)c1cc(Cl)ccc1NS(=O)(=O)C(F)(F)F: inactive
- CCCc1ccc(OCC(=O)N2CCN(C(=O)COc3ccc(CCC)cc3OC)CC2)c(OC)c1: inactive
- CCOC(=O)N1CCC(n2c(=O)[nH]c3cc(Cl)ccc32)CC1: inactive

* * *

- ASSAY NAME: qHTS of pediatric cancer cell lines to identify multiple opportunities for drug repurposing: Primary screen for Saos-2 cells (AID 1347097); further: nearly all actives have a fitted effect of over 40% in size
- CONDITION SET: Saos-2 viability, CellTiter-Glo ATP luminescence, 48 h; series mostly up to 46 µM
Inconclusive results are not listed. Active and inactive are the calls of the source. The call rests on the fitted dose curve; in most records, active means well fitted cell-killing curve with a large enough effect; inconclusive means small, poorly fitted or top-dose-only effect; inactive means no such curve, though single readings can be large or run the other way.
Outcome codes: active, inactive

* CC1(C)OC(=O)Nc2ccc(Br)cc21 | inactive
* O=C1CC[C@H](C(=O)N2CCCCC2)N1 | inactive
* OCc1cccnc1 | inactive
* O=C(Oc1ccccc1)c1ccccc1O | inactive
* C#Cc1ccc(-c2ccccc2F)cc1 | inactive
* O=C(Nc1ccc(Cl)cc1)Nc1ccc(Cl)c(C(F)(F)F)c1 | active
* COc1c(N2C[C@@H]3CCCN[C@@H]3C2)c(F)cc2c(=O)c(C(=O)O)cn(C3CC3)c12 | inactive

* * *

- ASSAY NAME: qHTS of pediatric cancer cell lines to identify multiple opportunities for drug repurposing: Primary screen for Saos-2 cells (AID 1347097); further: nearly all actives have a fitted effect of over 40% in size
- CONDITION SET: Saos-2 viability, CellTiter-Glo ATP luminescence, 48 h; series mostly up to 46 µM
Inconclusive results are not listed. Active and inactive are the calls of the source. Calls follow the shape of the dose curve; as a rule, active = well fitted cell-killing curve with a large enough effect; inconclusive = small, poorly fitted or top-dose-only effect; inactive = no such curve, though single readings can be large or run the other way.
Outcome codes: true (1) for active, false (0) for inactive

• Cc1ccc(-c2ccccc2C#N)cc1 = false (0)
• CC[N+]1(CC)CCC(=C(c2ccccc2)c2ccccc2)C1C (centres undefined) = false (0)
• CC[C@@]1(O)C(=O)OCc2c1cc1n(c2=O)Cc2c-1nc1ccccc1c2/C=N/OC(C)(C)C = true (1)
• OC[C@]1(O)OC[C@@H](O)[C@H](O)[C@@H]1O = false (0)
• O=C(O)Cc1ccccc1Oc1ccc(Cl)cc1Cl = false (0)
• CCCCNc1ccc(C(=O)OCCN(CC)CC)cc1 = false (0)
• Cc1cc(C(C)(C)C)c(O)c(C(C)(C)C)c1 = false (0)
• O=C(O)C(=O)Nc1cccc(-c2nn[nH]n2)c1 = false (0)
• Cc1onc(-c2ccccc2)c1C(=O)Cl = false (0)
• O=C(O)C1CCC1 = false (0)
• C[C@H]1NCc2cc(-c3ccc4c(=O)c(C(=O)O)cn(C5CC5)c4c3OC(F)F)ccc21 = false (0)
• CO/N=C(/C(=O)N[C@@H]1C(=O)N2C(C(=O)OCOC(=O)C(C)(C)C)=C(C)CS[C@H]12)c1csc(N)n1 = false (0)
• Cc1cc(=O)oc2cc(O[C@@H]3SC[C@@H](O)[C@H](O)[C@H]3O)ccc12 = false (0)
• CCOC(=O)NNc1ccc(N(CC)CC(C)O)nn1 (centres undefined) = false (0)
• CC(=O)OCC[N+](C)(C)C = false (0)
• C[C@H]1C[C@H]2[C@@H]3CCC4=CC(=O)C=C[C@]4(C)[C@H]3C(=O)C[C@]2(C)[C@@]1(O)C(=O)CO = false (0)
• O=C(CCCCC(=O)Nc1c(I)cc(I)c(C(=O)O)c1I)Nc1c(I)cc(I)c(C(=O)O)c1I = false (0)
• Oc1cccc2[nH]ccc12 = false (0)
• CC(=O)[C@@]1(O)CC[C@H]2[C@@H]3C[C@H](C)C4=CC(=O)CC[C@]4(C)[C@H]3CC[C@@]21C = false (0)
• Cc1ccc(/C=N/n2c(-c3ccccc3)csc2=S)cc1 = false (0)
• Cc1ncc([N+](=O)[O-])n1C = false (0)
• Cc1ccccc1N1CCN(CCc2nnc3n2CCCC3)CC1 = false (0)
• Cc1ccc(C(=O)C(=O)O)cc1C = false (0)
• CN(C)CCOC(c1ccccc1)c1ccc(Br)cc1 (centres undefined) = false (0)

* * *

- ASSAY NAME: qHTS of pediatric cancer cell lines to identify multiple opportunities for drug repurposing: Confirmatory screen for U-2 OS cells (AID 1347122); further: nearly all actives have a fitted effect of over 65% in size; further: potency means the concentration at half of the fitted maximal effect
- CONDITION SET: U-2 OS osteosarcoma cell viability; series mostly up to 45.9 µM
Results filed as inconclusive are left out. Calls of active or inactive are those of the source. Calls follow the shape of the dose curve; as a rule, active = well fitted cell-killing curve with a large enough effect; inconclusive = small, poorly fitted or top-dose-only effect; inactive = no such curve, though single readings can be large or run the other way.
MEASURE: Potency

* CCN(CC)CC(=O)OCC(=O)[C@@]1(O)CC[C@H]2[C@@H]3CCC4=CC(=O)CC[C@]4(C)[C@H]3[C@@H](O)C[C@@]21C | inactive
* Nc1ccc2cc3ccc(N)cc3nc2c1 | 9.27 µM (active)
* Cc1cc(OCCOCC[N+](C)(C)Cc2ccccc2)ccc1C(C)(C)CC(C)(C)C | 23.3 µM (active)
* O=[N+]([O-])c1ccc(O)c2ncccc12 | inactive
* CC(=O)[C@@]1(O)CC[C@H]2[C@@H]3C[C@H](C)C4=CC(=O)CC[C@]4(C)[C@H]3CC[C@@]21C | inactive
* CCc1cc2cc(OC)c(OC)cc2c(Cc2ccccc2)n1 | inactive
* CCC1=C[C@@H]2CN(C1)Cc1c([nH]c3ccccc13)[C@@](C(=O)OC)(c1cc3c(cc1OC)N(C)[C@H]1[C@@](O)(C(=O)OC)[C@H](OC(C)=O)[C@]4(CC)C=CCN5CC[C@]31[C@@H]54)C2 | 0.185 µM (active)
* CCOC(=O)O[C@]1(C(=O)OCCl)CC[C@H]2[C@@H]3CCC4=CC(=O)C=C[C@]4(C)[C@H]3[C@@H](O)C[C@@]21C | inactive

* * *

- System: P94_40
- ASSAY NAME: qHTS profiling for inhibitors of Plasmodium falciparum proliferation (AID 504749); further: nearly all actives have a fitted effect of over 60% in size
- CONDITION SET: P. falciparum in erythrocytes, SYBR Green DNA, 72 h; series mostly up to 28.7 µM
Results filed as inconclusive are left out. The source made the active and inactive calls. The call rests on the fitted dose curve; in most records, active means well fitted inhibition curve with a large enough effect; inconclusive means small, poorly fitted or top-dose-only effect; inactive means flat fitted curve, though single readings scatter.
Outcome codes: 1.0 (active), 0.0 (inactive)

• O=C(Nc1ccc(Cl)cc1)Nc1ccc(Cl)c(Cl)c1 = 1.0
• CN1CCC(Nc2ncc3ncnc(Nc4ccc(F)c(Cl)c4)c3n2)CC1 = 1.0
• O=S(=O)(O)c1ccc2nc(-c3ccccc3)[nH]c2c1 = 0.0
• CCCCCCCCCCCCCC[N+](C)(C)C = 1.0

* * *

- ASSAY NAME: qHTS of pediatric cancer cell lines to identify multiple opportunities for drug repurposing: Primary screen for A673 cells (AID 1347092); further: nearly all actives have a fitted effect of over 45% in size
- CONDITION SET: A673 Ewing sarcoma viability, CellTiter-Glo ATP luminescence, 48 h; series mostly up to 46 µM
Inconclusive results are not listed. Calls of active or inactive are those of the source. Calls follow the shape of the dose curve; as a rule, active = well fitted cell-killing curve with a large enough effect; inconclusive = small, poorly fitted or top-dose-only effect; inactive = no such curve, though single readings can be large or run the other way.
Outcome codes: active, inactive

- CC(=O)Nc1ccc(S(=O)(=O)Nc2cc(C)on2)cc1: inactive
- O=C(O)/C=C(\CC(=O)O)C(=O)O: inactive
- CCCCCCCCCCCCCCCC[N+](C)(C)Cc1ccccc1: active
- C[N+](C)(CCOc1ccccc1)Cc1cccs1: inactive
- Cc1oc(-c2ccccc2)nc1CCC(=O)c1ccc(CC2SC(=O)NC2=O)cc1 (stereo unspecified): inactive
- O=C(NN1CCCC1)NS(=O)(=O)c1ccc(Cl)cc1: inactive
- COc1ccccc1OCC1CNC(=O)O1 (stereo unspecified): inactive
- CO/N=C(\C(=O)O)c1csc(NC(=O)CCl)n1: inactive
- COC(=O)C1=C(C)NC(C)=C(C(=O)OCCc2ccc(N3CCN(C(c4ccccc4)c4ccccc4)CC3)cc2)C1c1cccc([N+](=O)[O-])c1 (stereo unspecified): inactive
- CC(=O)[C@@]1(O)CC[C@H]2[C@@H]3C[C@H](C)C4=CC(=O)CC[C@]4(C)[C@H]3CC[C@@]21C: inactive
- Cc1onc(-c2ccccc2)c1C(=O)Cl: inactive

* * *

- ASSAY NAME: Primary qHTS for inhibitors of nuclear receptor binding SET domain protein 2 (NSD2) in an RCH-ACV wild type WT cells (2C) (AID 1645877); further: nearly all actives have a fitted effect of over 70% in size; further: potency means the concentration at half of the fitted maximal effect
- CONDITION SET: RCH-ACV (leukaemia line) NSD2 WT (2C) viability, CellTiter-Glo, 72 h; series mostly up to 44.9 µM
Results filed as inconclusive are left out. Calls of active or inactive are those of the source. The call rests on the fitted dose curve; in most records, active means well fitted inhibition curve with a large enough effect; inconclusive means small, poorly fitted or top-dose-only effect; inactive means no such curve, though single readings can be large or run the other way.
MEASURE: Potency

- Cc1cccc(OCC(O)CNC(C)(C)C)c1C (stereo unspecified): inactive
- O=C(O)c1ccc(OCCN2CCCCC2)cc1: inactive
- O=C(COCCOCCOCC(=O)Nc1c(I)cc(I)c(C(=O)O)c1I)Nc1c(I)cc(I)c(C(=O)O)c1I: inactive
- CC(COc1ccccc1)NN (stereo unspecified): inactive
- Cc1nc(C2CCCCC2)c(-c2ccc(S(N)(=O)=O)c(F)c2)o1: 13.3 µM (active)
- CC(C)(C)NCC(O)COc1ccccc1OCC1CCCO1 (stereo unspecified): inactive
